- Tested on: Escherichia coli
- protocol_summary: Antibacterial activity against Escherichia coli ATCC 35218 after 16 to 18 hr by broth microdilution method
- Assay type: functional
measurement_type: MIC (µg/mL)
Express it in µg/mL; write the number only.

Below, each entry is followed by its recorded MIC result.
Exercise: MIC lookup needed for CC(C)CCCC(C)CCNCCNC12CC3CC(CC(C3)C1)C2.Cl (configuration not stated) , thanks.
Key: 31.2

Exercise: Look up MIC: `NC[C@@H]1O[C@H](O[C@H]2[C@@H](O)[C@H](O[C@@H]3[C@@H](O)[C@H](N)C[C@H](N)[C@H]3O[C@H]3O[C@H](CN)[C@@H](O)[C@H](O)[C@H]3N)O[C@@H]2CO)[C@H](N)[C@@H](O)[C@@H]1O`
Key: 3.13

Exercise: Which MIC value belongs to `CC(C)=CCC/C(C)=C/CNCCNC12CC3CC(CC(C3)C1)C2.Cl` ?
Key: 500

Exercise: Request the reported MIC associated with CC(C)CCCC(C)CCNCCNC1C2CC3CC(C2)CC1C3.Cl (configuration not stated)
Key: 31.2

Exercise: So what does the record say about MIC for CC(C)=CCC/C(C)=C/CC/C(C)=C/CNCCNC1C2CC3CC(C2)CC1C3.Cl (configuration not stated) ?
Key: 7.8

Exercise: I'd like to know its MIC. The molecule in question is CC(C)CCCC(C)CCCC(C)CCNCCNC1C2CC3CC(C2)CC1C3.Cl (configuration not stated)
Key: 7.8

Attention now turns to another entry.
Exercise: Consider the molecule shown here: CC(C)=CCC/C(C)=C/CNCCNC1C2CC3CC(C2)CC1C3.Cl (configuration not stated) What is its recorded MIC?
Key: 500

Origin of values: ChEMBL document CHEMBL3046423
